- Test system: footpad swelling (SRBC challenge)
- test-method-notes: Delayed Hypersensitivity Assay (SRBC-sensitized mice, footpad swelling)
- Format: in vivo, female BALB/C mice
- applied-conditions: Mus musculus, po; Table I; dosage 10.0 mg/kg p.o., one hour prior to challenge; 24 hrs post challenge; read-out: Inhibition % (percent inhibition of footpad swelling)
Structures can show the parent of a compound that is named as a salt.
parameter: inhibition in vivo at 10 mg/kg (%)

- c1ccc(-c2ccc(Cc3nc(-c4ccncc4)cs3)cc2)cc1: 36.4
- OCC(c1ccccc1)c1nc(-c2ccncc2)cs1 (centres unmarked): 27
- O=[N+]([O-])c1ccc(Cc2nc(-c3ccncc3)cs2)cc1: 65.2
- NC(=O)Nc1ccccc1Cc1nc(-c2ccncc2)cs1: 31.4
- Cc1cccc(Cc2nc(-c3ccncc3)cs2)c1 [m-CH3, dihydrochloride]: 64.8
- CC(=O)Nc1ccccc1Cc1nc(-c2ccncc2)cs1: 52.8
- FC(F)(c1ccccc1)c1nc(-c2ccncc2)cs1: 63
- OC(c1ccccc1)c1nc(-c2ccncc2)cs1 (centres unmarked): 55
- Nc1ccccc1Cc1nc(-c2ccncc2)cs1: 52.8
- Fc1ccc(Cc2nc(-c3ccncc3)cs2)cc1: 40.9
- O=CC(c1ccccc1)c1nc(-c2ccncc2)cs1 (centres unmarked): 63
